- targetSystem: Protein kinase C alpha type (Homo sapiens)
- measurementDescription: Inhibition of PKC alpha (unknown origin) in presence of ATP at Km
endpointName: IC50 (nM)
Only the number, expressed in nM, is required.

Entry CC1CCN(C)c2ccnc3cc(F)c(nc23)-n2c(=O)[nH]c3nccc(c32)O1 (configuration not stated) : reported IC50 = ? 25

Moving on to CC1CCCOc2ccnc3[nH]c(=O)n(c23)-c2ccc3nccc1c3n2 (configuration not stated) 59

Now try CC1CCC(C)n2ccc(=O)c3ccc(nc32)-n2c(=O)[nH]c3nccc(c32)O1 (configuration not stated) . 140

Same for CC1CCCOc2ccnc3[nH]c(=O)n(c23)-c2cccc(n2)O1 (configuration not stated) 259

Lookup CC1CC(C)Oc2ccnc3[nH]c(=O)n(c23)-c2cccc(n2)O1 (configuration not stated) 820

Quick one: CC1CCC(C)Oc2ccnc3[nH]c(=O)n(c23)-c2nc(c(C(N)=O)cc2F)O1 (configuration not stated) 49

One more molecule: CC1CCCOc2nc(c(-c3nnc[nH]3)cc2C(N)=O)-n2c(=O)[nH]c3nccc(c32)O1 (configuration not stated) 1100

Another molecule: CC1CCCOc2cccc(n2)-n2c(=O)[nH]c3nccc(c32)O1 (configuration not stated) 1900

Let us now turn to CC1CCCOc2nc(ccc2C(N)=O)-n2c(=O)[nH]c3nccc(c32)O1 (configuration not stated) 770

Next: CC1CCN(C)c2ccnc3ccc(nc23)-n2c(=O)[nH]c3nccc(c32)O1 (configuration not stated) 82

Repeat with CC1CCCOc2nc(c(-c3ccn[nH]3)cc2C(N)=O)-n2c(=O)[nH]c3nccc(c32)O1 (configuration not stated) 8200

Cool, now CC1CCC(C)n2ccc(=O)c3cc(F)c(nc32)-n2c(=O)[nH]c3nccc(c32)O1 (configuration not stated) 49

Okay, and CC1CCCOc2ccnc3[nH]c(=O)n(c23)-c2nc(c(C(N)=O)cc2-c2ncc[nH]2)O1 (configuration not stated) ? 270

// repeat for CC1CCCn2ccc(=O)c3ccc(nc32)-n2c(=O)[nH]c3nccc(c32)O1 (configuration not stated) and report 880

Then this molecule: CC1CCOc2ccnc3ccc(nc23)-n2c(=O)[nH]c3nccc(c32)O1 (configuration not stated) 980

Same question for CC1CCC(C)c2ccnc3ccc(nc23)-n2c(=O)[nH]c3nccc(c32)O1 (configuration not stated) please. 65

Please do the same for CC1CCN(C)c2c(F)cnc3cc(F)c(nc23)-n2c(=O)[nH]c3nccc(c32)O1 (configuration not stated) as well. 56

# iterate: CC1CCCOc2nc(c(-c3cnc[nH]3)cc2C(N)=O)-n2c(=O)[nH]c3nccc(c32)O1 (configuration not stated) 920

Please give the result for CC1CCn2ccc(=O)c3cc(F)c(nc32)-n2c(=O)[nH]c3nccc(c32)O1 (configuration not stated) too. 440

What about this molecule? CC1CCCOc2ccnc3[nH]c(=O)n(c23)-c2ccc3c(=O)ccn1c3n2 (configuration not stated) 68

Request: CC1CCN2c3nc(ccc3C(=O)NC2(C)C)-n2c(=O)[nH]c3nccc(c32)O1 (configuration not stated) 57
